Measured cytotoxicity values are reported for all entries that follow.
assay: viability loss of HPDE-C7K cells – cell-based, fluorescence, HTS, primary screen (AID 431); settings: HPDE-C7K KRASV12 cells, Alamar Blue viability, 48 h; at 10 µM; hits give high values;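 note: 0% = DMSO solvent wells and 100% = doxorubicin-treated wells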
Among all 63,000 compounds or so, about 1,100 (1.7%) were called active. This is one part of a sample in which actives are shown more often than they occur. Potency and affinity values are given separately.
Supply the numeric figure in %, leaving out any unit text.

Example results:
>>> numeric_value("COc1cccc(C2/C(=C(/O)c3cnn(-c4ccccc4)c3C)C(=O)C(=O)N2CCN(C)C)c1OC (stereo not drawn)")
11.3
>>> numeric_value("N#CCCN1CCN(S(=O)(=O)c2ccc(S(=O)(=O)N3CCCCCC3)cc2)CC1")
0.7

Field: next compound
Value of measured cytotoxicity for the entry `CCOC(=O)c1c2n(c3ccc(O)cc13)CCCCC2` : 2.9

---

test: viability loss of HPDE-C7K cells – cell-based, fluorescence, HTS, primary screen (AID 431); details: HPDE-C7K KRASV12 cells, Alamar Blue viability, 48 h; at 10 µM; hits give high values;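 note: 0% = DMSO solvent wells and 100% = doxorubicin-treated wells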
Out of some 63,000 compounds screened, about 1,100 (1.7%) were called active. For the sample, actives were picked, then their nearest neighbours and some compounds at random. Potency and affinity values are given separately.
cytotoxicity by entry:
Please reply with the bare figure in % and do not write the unit itself.

>>> numeric_value("O=C1CNC(=O)/C1=C\\N1CCCCC1")
-3.5

The value of cytotoxicity measured for the compound `Cc1cc(NC(=O)c2cc(-c3cccnc3)nc3c(C)c(C)ccc23)no1` turned out to be 8.8

Record `CCCc1ccc(Oc2cn[nH]c2-c2ccc(O)cc2O)cc1` , field cytotoxicity: 29.1

Summary for this compound, N#C/C(C(N)=O)=c1/ccc2c(c1)N1C3=C(CCCC3)CC3CCCCC31N=2 (configuration not stated) : cytotoxicity is 66.4

Form field cytotoxicity, entry `O=C(c1ccccc1F)N1CCN(c2cccc(C(F)(F)F)c2)CC1` : -5.2

compound COc1cccc(C2C=C(c3ccc(Br)s3)Nc3ncnn32)c1OC (configuration not stated) , cytotoxicity observed: -7.6

Lab note: `COC(=O)c1ccccc1NC(=O)Cn1c(-c2nonc2N)nc2ccccc21` gave cytotoxicity of 41.3

---

assay: viability loss of HPDE-C7K cells – cell-based, fluorescence, HTS, primary screen (AID 431); details: HPDE-C7K KRASV12 cells, Alamar Blue viability, 48 h; at 10 µM; hits give high values;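 note: 0% = DMSO solvent wells and 100% = doxorubicin-treated wells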
About 1,100 (1.7%) of roughly 63,000 compounds were called active. For the sample, actives were picked, then their nearest neighbours and some compounds at random. Potency and affinity values are given separately.
recorded.endpoint: cytotoxicity (%)
Answer with a number only, understood to be in %.

Example entries and their recorded answers appear below.
>>> numeric_value("CCc1ccc2c(COC(=O)c3n[nH]c4ccccc34)cc(=O)oc2c1")
17.5
>>> numeric_value("COC(=O)c1ccc(Cl)c(NS(=O)(=O)c2ccc3c(c2)OCCO3)c1")
63.6

Query NC(=O)c1ccc(N2CCCCC2)c(N2C(=O)C3C4C=CC(C4)C3C2=O)c1 (configuration not stated) yields cytotoxicity of 2.5

Sample `O=C(O)CCCNS(=O)(=O)c1cccs1` ; cytotoxicity observed: 8

The compound identified as `Nc1nc(Cl)nc2c1ncn2[C@@H]1O[C@H](CO)[C@@H](O)[C@H]1O` registered its cytotoxicity at 2.5

---

experiment: viability loss of HPDE-C7K cells – cell-based, fluorescence, HTS, primary screen (AID 431); conditions: HPDE-C7K KRASV12 cells, Alamar Blue viability, 48 h; at 10 µM; hits give high values;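 note: 0% = DMSO solvent wells and 100% = doxorubicin-treated wells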
Screen size: about 63,000 compounds; about 1,100 (1.7%) were called active. The sample as a whole holds a higher share of actives than the screen did. Measured potencies and affinities stand elsewhere.
Overview of recorded cytotoxicity for various compounds
State just the number; it will be interpreted in %.

Guide cases for cytotoxicity, answers given:
>>> numeric_value("COc1cccc(C2=CC(c3cccc(OC)c3OC(F)F)n3nnnc3N2)c1 (configuration not stated)")
-13.8
>>> numeric_value("CCC(C)n1nccc1NC(=O)C(C)OC(=O)c1cc2ccccc2[nH]1 (configuration not stated)")
7
>>> numeric_value("COc1ccc(OC)c(C2C=C(c3ccc(C)c(C)c3)Nc3nnnn32)c1 (configuration not stated)")
6
>>> numeric_value("COc1cccc(C2=CC(c3ccccc3)n3nnnc3N2)c1 (configuration not stated)")
43.2
>>> numeric_value("O=C(Oc1cccc(Br)c1)c1cccnc1")
-13.7
>>> numeric_value("COc1ccc(C2=CC(c3ccc(OC)c(OC)c3)n3nnnc3N2)c(OC)c1 (configuration not stated)")
4

Value of measured cytotoxicity for the entry `CN(C)CCCNC(=O)CCC1CCCCC1` : 1.5

---

Entries and their cytotoxicity values follow.
experiment: viability loss of HPDE-C7K cells – cell-based, fluorescence, HTS, primary screen (AID 431); conditions: HPDE-C7K KRASV12 cells, Alamar Blue viability, 48 h; at 10 µM; hits give high values;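 note: 0% = DMSO solvent wells and 100% = doxorubicin-treated wells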
In all, about 63,000 compounds went through this assay and about 1,100 (1.7%) were called active. The entries come from a sample that favours actives as a whole. Measured potencies and affinities stand elsewhere.

In the examples that follow, each entry is paired with its recorded cytotoxicity.
>>> result("Cc1cc(Cl)ccc1OC(C)C(=O)Nc1ccccc1N1CCOCC1 (stereo not given)")
"-12.8% (inactive)"
>>> result("CC(=O)Nc1cc(C(F)(F)F)ccc1N1CCOCC1")
"-2.7% (inactive)"
>>> result("COc1cc(NC(=O)NCc2ccncc2)cc(OC)c1OC")
"-5.3% (inactive)"
>>> result("N#CC(C(=O)NC1CCCCC1)c1nc2ccccc2nc1N1CCOCC1 (stereo not given)")
"13.7% (inactive)"
>>> result("Cc1ccc(/C=c2\\sc3nc(-c4ccccc4Br)nn3c2=O)o1")
"8.5% (inactive)"

Value of cytotoxicity reported for the molecule `O=C1COc2ccc3ccccc3c2CN1` is -9.6% (inactive)

Reported cytotoxicity of `O=C(O)c1ccc2cccc(Cl)c2c1O` : 24.3% (inactive)

// sample `Cc1sc2ncnc(NCc3ccco3)c2c1C` , its cytotoxicity was 0.5% (inactive)

Query `O=C(Nc1cc(C(F)(F)F)ccc1N1CCOCC1)c1cccnc1` yields cytotoxicity of 2.2% (inactive)

// recorded cytotoxicity for `Cc1nn(C)cc1/C=N/O` : -2% (inactive)

---

assay: viability loss of HPDE-C7K cells – cell-based, fluorescence, HTS, primary screen (AID 431); conditions: HPDE-C7K KRASV12 cells, Alamar Blue viability, 48 h; at 10 µM;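 note: 0% = DMSO solvent wells and 100% = doxorubicin-treated wells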
Among all 63,000 compounds or so, about 1,100 (1.7%) were called active.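 The calls were made as follows: active = compounds whose percent cytotoxicity in the single-dose primary screen, scaled between solvent and toxic-drug controls, exceeds 50; inactive = the rest.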 Many of the other results were omitted from the sample, so actives are more common in it than they were. Potency and affinity values are given separately.
Respond with a class label; see active, inactive

Incoming: Outcome logged for `Cc1ccc2[nH]c3c(N4CCCCCC4)ncnc3c2c1` in this assay:
Outgoing: inactive

Incoming: Call for entry CCCOCCOC(=O)c1[nH]c2c(c1C)C(=O)CC(c1cc(OC)ccc1OC)C2 (stereo not drawn) :
Outgoing: active

Incoming: Any idea what this test logged for `O=C(NC1CCCCC1)N1CCC(c2nc3ccc(Cl)cc3[nH]2)CC1` ?
Outgoing: inactive

Incoming: In this assay, the call recorded for `Cc1cccc(-n2ncc3c(NC4CCCCC4)ncnc32)c1` was what?
Outgoing: inactive

Incoming: Short answer needed: outcome of this test for `CCOC(=O)c1sc(NC(=O)CSc2n[nH]c(-c3ccccc3)n2)c(C#N)c1C` ?
Outgoing: inactive

Incoming: Per the assay record, what outcome was assigned to COc1ccc(N=c2oc3cc(O)ccc3cc2C(=O)NCC2CCCO2)c(OC)c1 (stereo not drawn) ?
Outgoing: active

Incoming: Look up the recorded call for `NS(=O)(=O)c1ccc(NC(=O)CSC2CCCCC2)cc1` in this test.
Outgoing: inactive

---

assay: viability loss of HPDE-C7K cells – cell-based, fluorescence, HTS, primary screen (AID 431); conditions: HPDE-C7K KRASV12 cells, Alamar Blue viability, 48 h; at 10 µM; hits give high values;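 note: 0% = DMSO solvent wells and 100% = doxorubicin-treated wells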
Screen size: about 63,000 compounds; about 1,100 (1.7%) were called active. What follows is part of a selection rich in actives, with near analogues and random picks from the rest. Results with a measured potency or affinity are listed apart.
recorded.endpoint: cytotoxicity (%)
Give your result in % as a bare value.

>>> numeric_value("Cc1cccc(C)c1N(CC(=O)Nc1cccc(N(C)S(C)(=O)=O)c1)S(C)(=O)=O")
-7.3
>>> numeric_value("CCSc1nc2c(c(=O)n(C)c(=O)n2C)n1Cc1ccc(Cl)cc1")
1.1
>>> numeric_value("O=C(CN1C(=O)c2ccccc2C1=O)Nc1cccnc1")
10.7
>>> numeric_value("COc1cc2cc(C)c(SCC(=O)N3CCOCC3)nc2cc1OC")
-9.8
>>> numeric_value("COC(=O)/C(=C1/Oc2cc3c(cc2S1)OCO3)C(F)(F)F")
-15.1

Measured cytotoxicity, `OCCN1CCN(c2ncnc3c2sc2nc(N4CCOCC4)c4c(c23)CCC4)CC1` : 39.9

Sample `COC(=O)/C(=C1/Oc2cc(C)oc(=O)c2S1)C(F)(F)F` ; cytotoxicity observed: 70.4

Reported cytotoxicity for `O=C(Cn1nnc(-c2cc(Cl)ccc2-n2cnnn2)n1)N1CCCc2ccccc21` was -0.5

Entry under test: `COCCN1Cc2cccc(C(=O)Nc3cccc(OC)c3)c2C1=O` . Its cytotoxicity was -3.5

Measured cytotoxicity, `Cc1c(Cl)cccc1NC(=O)CSCc1cc(=O)[nH][nH]1` : -8.5

Record `C/C=C/c1ccc(Oc2nnnn2-c2ccc(C(N)=O)cc2)c(OC)c1` , field cytotoxicity: 1

Recorded cytotoxicity (compound `Cc1c(S(=O)(=O)N2CCN(c3cccc(C(F)(F)F)c3)CC2)c(=O)n(C)c(=O)n1C` ): 5.8

Kindly note the recorded cytotoxicity for `COc1ccc(NC(=O)N(CCCN(C)C)Cc2cc3cc(OC)ccc3[nH]c2=O)cc1` , which is -3

Reported cytotoxicity of `CCOc1ccc(C(=O)NCc2cccnc2)cc1` : 0.5

Input `Cc1cc(C)n(-c2nc(Nc3ccccc3)nc(-n3nc(C)cc3C)n2)n1` . Output cytotoxicity: 9.6
